Where these numbers come from: the supplement of paper PMC6555819

# PBM binding z-score listing for each entry below
- System: PPARg:RXRa 90nM:30nM, anti-RXR (NR concentration 90 nM, RXRa partner concentration 30 nM)
- assay.overview: PBM binding z-score (relative to random genomic background probes); higher = stronger binding; sequences stand for … in GC…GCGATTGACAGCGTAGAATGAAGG
// print number alone

residue_codes=TCTTGTAGGTCAATAGAGGTTAAGAAAGTGCGCT target="PPARg:RXRa 90nM:30nM, anti-RXR (NR concentration 90 nM, RXRa partner concentration 30 nM)" data_value=5.5
residue_codes=CAAACGAGGTCAAAGGTCAAAGTCGAGCCAACCA target="PPARg:RXRa 90nM:30nM, anti-RXR (NR concentration 90 nM, RXRa partner concentration 30 nM)" data_value=13.8
residue_codes=CCTACTGGGTCAAAGGTCATTGATTCCAATGCTC target="PPARg:RXRa 90nM:30nM, anti-RXR (NR concentration 90 nM, RXRa partner concentration 30 nM)" data_value=13
residue_codes=GCTGCTAGGTCAACTGATGGTCATCTAAAGCTCG target="PPARg:RXRa 90nM:30nM, anti-RXR (NR concentration 90 nM, RXRa partner concentration 30 nM)" data_value=2.34
residue_codes=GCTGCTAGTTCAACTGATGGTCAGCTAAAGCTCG target="PPARg:RXRa 90nM:30nM, anti-RXR (NR concentration 90 nM, RXRa partner concentration 30 nM)" data_value=-0.415
residue_codes=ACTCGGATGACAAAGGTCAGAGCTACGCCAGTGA target="PPARg:RXRa 90nM:30nM, anti-RXR (NR concentration 90 nM, RXRa partner concentration 30 nM)" data_value=5.58

# input Quote PPARg:RXRa 90nM:30nM, anti-RXR (NR concentration 90 nM, RXRa partner concentration 30 nM) PBM binding z-score for entry "ATATGTAGGTTACATCCGGGTCATCCAGGCTATG" .
# output 4.55

# input Report value only: PBM binding z-score, PPARg:RXRa 90nM:30nM, anti-RXR (NR concentration 90 nM, RXRa partner concentration 30 nM), "CAAACGAGGTCACAGAGGTCAAAGTCCGTGCGTA"
# output 8.53

# input Name the value of PBM binding z-score reported for "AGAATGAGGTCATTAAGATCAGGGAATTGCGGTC" when tested on PPARg:RXRa 90nM:30nM, anti-RXR (NR concentration 90 nM, RXRa partner concentration 30 nM).
# output 5.83

# input Give PBM binding z-score only, for "CGTCCAAGGTCTAGGTCAGTGAAAGAGACTCGAA" , using PPARg:RXRa 90nM:30nM, anti-RXR (NR concentration 90 nM, RXRa partner concentration 30 nM) data.
# output -0.014

# input Determine reported PBM binding z-score for "ATATGTAGGTTATCTGGGGTCATTCAGACTAGGC" ; test system: PPARg:RXRa 90nM:30nM, anti-RXR (NR concentration 90 nM, RXRa partner concentration 30 nM).
# output 5.32

# input State measured PBM binding z-score of the sequence "TCTCGGAGGACACAAAGGTCAGAGCTTTCCAGAG" with PPARg:RXRa 90nM:30nM, anti-RXR (NR concentration 90 nM, RXRa partner concentration 30 nM).
# output 4.07

* * *

- System: THRa homodimer (NR concentration 90 nM)
- assay.overview: PBM binding z-score (relative to random genomic background probes); higher = stronger binding; sequences stand for … in GC…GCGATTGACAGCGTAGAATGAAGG
# Lookup of reported PBM binding z-score keyed by entry
Respond using a number only.

residue_codes=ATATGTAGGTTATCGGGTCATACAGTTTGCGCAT target="THRa homodimer (NR concentration 90 nM)" assay_endpoint="PBM binding z-score" data_value=2.82
residue_codes=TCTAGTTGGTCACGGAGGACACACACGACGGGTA target="THRa homodimer (NR concentration 90 nM)" assay_endpoint="PBM binding z-score" data_value=1.27
residue_codes=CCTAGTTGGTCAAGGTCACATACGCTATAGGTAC target="THRa homodimer (NR concentration 90 nM)" assay_endpoint="PBM binding z-score" data_value=3.88

# input Given "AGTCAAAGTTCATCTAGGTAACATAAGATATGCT" , report its PBM binding z-score on THRa homodimer (NR concentration 90 nM).
# output 0.324

# input Fill: PBM binding z-score (THRa homodimer (NR concentration 90 nM)) for this sequence "AATACGGGGTCATCGTAGGCCAGAGTACGCACAG"
# output 2.62

# input Give PBM binding z-score only, for "TATCAAAGTTCAAAGGTAACGTAAGTATCCACAC" , using THRa homodimer (NR concentration 90 nM) data.
# output 0.168

# input Consider the sequence "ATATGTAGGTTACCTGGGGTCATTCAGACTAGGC" tested on THRa homodimer (NR concentration 90 nM); state its PBM binding z-score.
# output 3.39

# input Enter recorded PBM binding z-score with THRa homodimer (NR concentration 90 nM) for "TGTCAAAGGTCAAAGGTAACGTAAGTATCCACAC" here.
# output 0.695

# input Specify PBM binding z-score for "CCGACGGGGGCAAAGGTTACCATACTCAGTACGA" , system THRa homodimer (NR concentration 90 nM).
# output 1.02

# input Give PBM binding z-score for "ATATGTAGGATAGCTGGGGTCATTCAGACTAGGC" tested on THRa homodimer (NR concentration 90 nM).
# output 3.17

# input Enter recorded PBM binding z-score with THRa homodimer (NR concentration 90 nM) for "CGTCCAAGGTCACGGTCAGTGAAAGAGACTCGAA" here.
# output 3.63

# input Report the value of PBM binding z-score obtained on THRa homodimer (NR concentration 90 nM) for "CTCGAAAGGTCATGCTCAGGTGAGTATACCAAAC" .
# output 1.61

# input Write PBM binding z-score of "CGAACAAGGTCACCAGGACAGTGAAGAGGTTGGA" ; system used: THRa homodimer (NR concentration 90 nM)
# output 3.1

# input Give PBM binding z-score for this entry on THRa homodimer (NR concentration 90 nM): "CCGAGAAGGTTACGAGGGGGCATTCAGTGCGAAT"
# output 0.555

# input Give the observed PBM binding z-score of "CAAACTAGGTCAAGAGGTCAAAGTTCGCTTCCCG" for THRa homodimer (NR concentration 90 nM).
# output 2.78

# input Write down the reported PBM binding z-score (system: THRa homodimer (NR concentration 90 nM)) of "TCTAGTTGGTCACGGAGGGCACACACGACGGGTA"
# output 0.258

# input Give reported PBM binding z-score for "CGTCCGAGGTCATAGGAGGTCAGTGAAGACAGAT" (THRa homodimer (NR concentration 90 nM))
# output 3.58

# input Find the measured PBM binding z-score of "CCTGCGAGGTCATGGTCAGCTAATCTACAGTATG" with THRa homodimer (NR concentration 90 nM) as test system.
# output 3.39

# input Identify measured PBM binding z-score obtained with THRa homodimer (NR concentration 90 nM) for "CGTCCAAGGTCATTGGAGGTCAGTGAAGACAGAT" .
# output 3.37

# input Report the value of PBM binding z-score obtained on THRa homodimer (NR concentration 90 nM) for "AGAATGAGGTTAAACGTAGATCAGGGAAGAAAGT" .
# output 0.549

# input Please tell me the measured PBM binding z-score for "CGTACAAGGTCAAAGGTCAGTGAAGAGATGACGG" ; system: THRa homodimer (NR concentration 90 nM).
# output 2.58

# input Print THRa homodimer (NR concentration 90 nM) PBM binding z-score for "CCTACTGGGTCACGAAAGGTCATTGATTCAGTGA" .
# output 1.82

* * *

- Tested on: RXRa DBDmut IVT, anti-RXR (DBD mutation: RXRa K156A/R161A, NR concentration 90 nM)
- assay.overview: PBM binding z-score (relative to random genomic background probes); higher = stronger binding; sequences stand for … in GC…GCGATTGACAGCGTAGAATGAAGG
assay.endpoint: PBM binding z-score
Reply briefly: the number, and no unit.

Record excerpt, results attached:
residue_codes=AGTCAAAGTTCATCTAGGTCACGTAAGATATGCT target="RXRa DBDmut IVT, anti-RXR (DBD mutation: RXRa K156A/R161A, NR concentration 90 nM)" data_value=4.81
residue_codes=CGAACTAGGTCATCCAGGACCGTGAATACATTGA target="RXRa DBDmut IVT, anti-RXR (DBD mutation: RXRa K156A/R161A, NR concentration 90 nM)" data_value=2.15
residue_codes=CAAACCAGGTCAAAGGTCAAAGTCGAGCCAACCA target="RXRa DBDmut IVT, anti-RXR (DBD mutation: RXRa K156A/R161A, NR concentration 90 nM)" data_value=3.71
residue_codes=CTATGTAGGTTAGGGGGGTCATTCAGTTTGAAAG target="RXRa DBDmut IVT, anti-RXR (DBD mutation: RXRa K156A/R161A, NR concentration 90 nM)" data_value=3.23

# input Could you please provide reported PBM binding z-score for "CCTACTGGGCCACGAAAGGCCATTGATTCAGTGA" ? Thanks!
# output -0.292

# input Provide PBM binding z-score value for the following sequence: "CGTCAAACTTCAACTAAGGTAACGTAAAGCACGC"
# output 0.617

# input For the sequence "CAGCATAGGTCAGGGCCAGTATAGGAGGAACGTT" , give its measured PBM binding z-score value.
# output 0.209

# input Tell me PBM binding z-score reported for "TCTAGTTGGTCACGGAGGTCACAAACGACGGGTA"
# output 0.949

# input Name the recorded PBM binding z-score of the item "ATCGAAAGGTCAAAGGTGAGTATACCCACCCGAA" in your answer.
# output 3.46
